Reported pKd values for the following binders.
# target-or-system: T1, monomeric cynomolgus TNFR2 extracellular domain (cynomolgus monkey, UniProt A0A2K5VET2 132-366)
# T1 construct: extracellular domain; Analyte in the Octet experiments; also called cynomolgus TNFR2 ECD; Cyno TNFR2
# T1 sequence: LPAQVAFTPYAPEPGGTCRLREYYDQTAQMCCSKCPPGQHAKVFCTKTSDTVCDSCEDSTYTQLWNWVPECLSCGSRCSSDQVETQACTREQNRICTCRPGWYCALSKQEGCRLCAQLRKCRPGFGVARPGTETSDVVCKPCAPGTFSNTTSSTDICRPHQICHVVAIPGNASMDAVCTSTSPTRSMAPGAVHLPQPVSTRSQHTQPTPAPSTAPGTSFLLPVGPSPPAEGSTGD
# assay-notes: BLI (Octet Red 96), antibody captured on Fc biosensor, monomeric TNFR2 ECD in solution, 1:1 model
Conceptually, pKd converts a concentration in mol/L into minus its log10.

{"binder": "SBT-002 (antibody, V domains shown, Parental mouse antibody; also called mouse SBT-002) VH: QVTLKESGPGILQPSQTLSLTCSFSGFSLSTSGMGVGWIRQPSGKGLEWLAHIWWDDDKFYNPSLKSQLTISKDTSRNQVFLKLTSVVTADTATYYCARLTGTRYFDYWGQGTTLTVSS VL: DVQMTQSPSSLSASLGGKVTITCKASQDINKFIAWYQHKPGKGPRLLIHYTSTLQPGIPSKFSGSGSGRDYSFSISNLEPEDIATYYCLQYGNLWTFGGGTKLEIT", "quantity-measured": "pKd", "measured-value": 9.36}
{"binder": "chimeric SBT-004 (antibody, V domains shown, VH fused to a human IgG1 Fc domain; also called chSBT-004) VH: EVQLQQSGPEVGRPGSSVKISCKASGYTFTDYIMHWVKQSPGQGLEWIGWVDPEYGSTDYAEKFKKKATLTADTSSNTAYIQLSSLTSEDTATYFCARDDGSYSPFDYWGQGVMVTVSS VL: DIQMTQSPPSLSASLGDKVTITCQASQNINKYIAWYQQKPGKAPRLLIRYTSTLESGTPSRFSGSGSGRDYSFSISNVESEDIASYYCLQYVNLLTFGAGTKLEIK", "quantity-measured": "pKd", "measured-value": 8.47}
{"binder": "SBT-001 (antibody, V domains shown, Parental mouse antibody; also called mouse SBT-001) VH: EVQLQQSGAELVKPGASVKISCKASGYTFTDYNMDWVKQSHGKSLEWIGDINPNYESTSYNQKFKGKATLTVDKSSSTAYMEVRSLTSEDTAVFYCARDKGWYFDVWGAGTTVTVSS VL: ENVLTQSPAIMSASLGEKVTMSCRASSSVKNMYWYQQKSDASPKLWIYYTSNLAPGVPARFSGSGSGNSYSLTISSMEGEDAATYYCQQFTSSPYTFGGGTKLELK", "quantity-measured": "pKd", "measured-value": 7.27}

Problem: Supply recorded pKd for chimeric SBT-003 (antibody, V domains shown, also called chSBT-003) VH: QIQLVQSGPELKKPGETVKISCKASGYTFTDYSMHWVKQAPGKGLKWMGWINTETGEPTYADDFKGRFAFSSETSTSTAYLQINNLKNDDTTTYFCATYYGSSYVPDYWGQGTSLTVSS VL: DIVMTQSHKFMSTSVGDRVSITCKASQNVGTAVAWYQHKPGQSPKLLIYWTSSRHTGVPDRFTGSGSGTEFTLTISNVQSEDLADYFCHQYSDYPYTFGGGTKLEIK here.
Result: 6.33

Problem: Supply recorded pKd for chimeric SBT-002 (antibody, V domains shown, also called chSBT-002) VH: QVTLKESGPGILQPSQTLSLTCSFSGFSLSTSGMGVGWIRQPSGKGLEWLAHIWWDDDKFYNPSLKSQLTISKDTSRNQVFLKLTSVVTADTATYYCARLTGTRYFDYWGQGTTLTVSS VL: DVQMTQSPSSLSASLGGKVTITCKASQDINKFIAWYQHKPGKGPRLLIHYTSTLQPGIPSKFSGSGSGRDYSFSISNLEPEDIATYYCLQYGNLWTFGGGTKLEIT here.
Result: 9.21
